Kindly state GI50 for each of the entries shown.
Tested on: MALME-3M melanoma
test: NCI tumour cell line growth inhibition, 48 h

What reported GI50 corresponds to CC1SC2(CCC(c3ccccc3)CC2)N(NC(=O)c2[nH]c3ccc(F)cc3c2-c2ccccc2)C1=O (configuration not stated) on MALME-3M melanoma?
16 µM

Checklist item: GI50 tested on MALME-3M melanoma, entry `C[N+](C)(CCCCCC[N+](C)(C)CCCN1C(=O)c2cc3ccccc3cc2C1=O)CCCN1C(=O)c2cc3ccccc3cc2C1=O` , value?
> 37.5 µM

Requested read-out GI50, target or system MALME-3M melanoma, entry `O=C(c1ccco1)c1c(C(F)(F)F)nc2ccc(C(F)(F)F)cc2[n+]1[O-]`
20.8 µM

What measured GI50 is associated with `CCCCCc1cc[n+](CC(=O)c2ccc([N+](=O)[O-])cc2)cc1` on MALME-3M melanoma?
2.15 µM

Please tell me: GI50 of `CCCCCCCCCCCCCCCC(=O)N[C@H](/C=C/[C@H](O)CCCCCCCCCCCCC)CO` , system MALME-3M melanoma?
> 100 µM

Form field: GI50 recorded for `COc1cccc(-n2cc(-c3nc(Nc4cc(C)[nH]n4)c4ccccc4n3)nn2)c1` with MALME-3M melanoma (enter value)
5.31 µM

MALME-3M melanoma / GI50 / `COc1cc(/C=C2\Oc3cc(OCCCN4CCCC4)ccc3C2=O)cc(OC)c1` : value?
1.77 µM

Can you look up GI50 on MALME-3M melanoma for `CCOC(=O)c1ccc2c(c1)nc(/C=C/c1ccc(Cl)cc1)n2-c1cc(C(C)(C)C)[nH]n1` ?
2.8 µM

Find GI50 (MALME-3M melanoma) for the entry `N.N.O=P([O-])([O-])CN(CCN(CP(=O)([O-])[O-])CP(=O)([O-])[O-])CP(=O)([O-])[O-].[Pt+2]`
> 100 µM

Give recorded GI50 with MALME-3M melanoma for the following compound: C=C(C)C1CC=C(C)CC1 (configuration not stated)
> 100 µM

Reported GI50 for MALME-3M melanoma, given `COc1ccc(-c2nn(-c3cccc(NC(=O)Nc4ccccc4)c3)cc2-c2ccncc2)cc1Cl` ?
1.89 µM

Form: Entry = CCCCCCC/C=C/[C@H]1O[C@]2(O)C(=O)C=C3C[C@@H](O[C@@H]4O[C@H](CO)[C@@H](O)C(O)[C@@H]4O)C[C@@H]3[C@H]2C=C1C (some centres not stated) | System = MALME-3M melanoma | GI50 = ____
4.8 µM
